B1: TRIM15 (parent)
chain: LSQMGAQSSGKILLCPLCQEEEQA

- Variants of: B1
- methodNotes: protein stability index of a GFP-peptide fusion (GPS, HEK-293T) (PSI 1-6); higher = more stable;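 note: lentivirally expressed fusions sorted by FACS into six bins by GFP to DsRed ratio, PSI derived from sequencing read proportions per bin multiplied by bin number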
- settings: c terminus: a fixed tail appended
# protein stability index >= 4 gives Y, anything below gives N

Use these answered entries as a reference point.
>  <change>
L13C

>  <qualitativeLabel>
Y

$$$$
>  <change>
E21T

>  <qualitativeLabel>
N

$$$$
>  <change>
Q3V

>  <qualitativeLabel>
N

$$$$
>  <change>
E22I

>  <qualitativeLabel>
N

$$$$
>  <change>
S9P

>  <qualitativeLabel>
N

$$$$
>  <change>
C18T

>  <qualitativeLabel>
Y

$$$$

input: Would you say E20F shows protein stability index at minimum 4?
output: N

input: Would you say A24V shows protein stability index at minimum 4?
output: N

input: Would you say L13E shows protein stability index at minimum 4?
output: Y

input: Would you say L14Y shows protein stability index at minimum 4?
output: Y

input: Would you say C18I shows protein stability index at minimum 4?
output: N

input: Would you say S9I shows protein stability index at minimum 4?
output: N

Cited source: the supplement of paper PMC10567573
